Can you tell me normalized growth for the items I'm about to list?
# Protocol Details: chemical genetic growth profiling, strain panel (AID 1159580);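 also: tested at 20 µM; growth read once vehicle control cultures reached saturation at 30 °C; 1 = growth at the plate median or of vehicle wells; lower values mean less growth of the strain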
# Condition Description: S. cerevisiae deletion strains, growth OD, locus YNL298W, strain CLA4, stronger effect = lower value
Among all 5,500 compounds or so, about 2,000 (36%) were called active. About 18% were inconclusive and are not listed. Some of the results follow.
One number for each entry.

[[record]]
compound = "COc1cc(OC)c2c(=O)c(OC)c(-c3ccc(OC)c(OC)c3)oc2c1"
numeric_result = 0.998


Batch: normalized growth for all items listed.
1. COc1cc(OC)c2c(=O)c(O)c(-c3ccc(OC)c(OC)c3)oc2c1
2. COc1ccc(-c2cc(=O)c3c(O)cc(O[C@H]4O[C@H](CO[C@@H]5O[C@@H](C)[C@H](O)[C@@H](O)[C@H]5O)[C@@H](O)[C@H](O)[C@H]4O)cc3o2)cc1
3. COc1cc(O)c2c(=O)c(O)c(-c3ccc(O)c(O)c3)oc2c1

[0.975, 1.02, 1.01]

Batch: normalized growth for all items listed.
1. O=c1c(O)c(-c2cc(O)c(O)c(O)c2)oc2cc(O)cc(O)c12
2. CCc1cccc(CC)c1N(COC)C(=O)CCl

1: 1.02; 2: 1.03

Batch: normalized growth for all items listed.
1. COc1ccc(-c2oc3c(CC=C(C)C)c(O[C@@H]4O[C@H](CO)[C@@H](O)[C@H](O)[C@H]4O)cc(O)c3c(=O)c2O[C@@H]2O[C@@H](C)[C@H](O)[C@@H](O)[C@H]2O)cc1
2. O=C(Cc1cccs1)NC1C(=O)N2C(C(=O)[O-])=C(C[n+]3ccccc3)CSC12 (stereo not drawn)

1. 0.981
2. 0.986

###

Can you tell me normalized growth for the items I'm about to list?
# Protocol Details: chemical genetic growth profiling, strain panel (AID 1159580)
# Condition Description: S. cerevisiae deletion strains, growth OD, locus YER155C, strain BEM2 (second series), stronger effect = lower value
Screen size: about 5,500 compounds; about 2,000 (36%) were called active. Another 18% or so got no clear call; they are omitted. The list shows a part of the results.
One number for each entry.

Before answering, review these 4 worked examples.
[[record]]
compound = "C[C@@H]1CC[C@@]2(OC1)O[C@H]1CC3C4CC[C@H]5C[C@@H](O)CC[C@]5(C)C4CC[C@]3(C)[C@H]1[C@@H]2C (stereo partly drawn)"
property_name = "normalized growth"
numeric_result = 0.977

[[record]]
compound = "CC(=O)OCC1=C(C(=O)O)N2C(=O)[C@@H](NC(=O)Cc3cccs3)[C@H]2SC1"
property_name = "normalized growth"
numeric_result = 1

[[record]]
compound = "C=C1CCC2(OC1)OC1CC3C4CC=C5CC(O)CC(O)C5(C)C4CCC3(C)C1C2C (stereo not drawn)"
property_name = "normalized growth"
numeric_result = 1.01

[[record]]
compound = "CC(C)(C)NCC(O)c1cc(O)cc(O)c1 (stereo not drawn)"
property_name = "normalized growth"
numeric_result = 0.975


Batch: normalized growth for all items listed.
1. C[C@@H]1CC[C@@]2(NC1)O[C@H]1C[C@H]3C4CC=C5C[C@@H](O)CC[C@]5(C)C4CC[C@]3(C)C1[C@@H]2C (stereo partly drawn)
2. C[C@@H]1CC[C@@]2(OC1)OC1CC3C4CC=C5C[C@@H](O)CC[C@]5(C)C4CC[C@]3(C)C1[C@@H]2C (stereo partly drawn)
3. CC(CC(O)C1OC1(C)C)[C@@H]1CCC2(C)C3=CCC4C(C)(C)C(=O)CCC4(C)C3CC[C@@]12C (stereo partly drawn)

1: 0.106; 2: 1.02; 3: 1.04

Field request: normalized growth | item: CC1CC[C@@]2(OC1)O[C@H]1CC3C4CC[C@@H]5C[C@@H](O)CC[C@]5(C)C4CC[C@]3(C)[C@H]1[C@@H]2C (stereo partly drawn)
1.09

###

Can you tell me normalized growth for the items I'm about to list?
# Protocol Details: chemical genetic growth profiling, strain panel (AID 1159580);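 also: tested at 20 µM; growth read once vehicle control cultures reached saturation at 30 °C; 1 = growth at the plate median or of vehicle wells; lower values mean less growth of the strain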
# Condition Description: S. cerevisiae deletion strains, growth OD, locus YNL322C, strain KRE1, stronger effect = lower value
Out of some 5,500 compounds screened, about 2,000 (36%) were called active. About 18% were inconclusive and are not listed. This is one part of the list.
Answers are plain numbers.

Before answering, review these 3 worked examples.
[[record]]
compound = "COC(=O)C1OC(=O)C2OC23C1(C)CCC1C2(C)C(OC(C)=O)CC(OC(C)=O)C(C)(C)C2CC(=O)C13C (stereo unspecified)"
numeric_result = 1.01

[[record]]
compound = "NC(=NCCC[C@H](N)C(=O)O)N[N+](=O)[O-]"
numeric_result = 0.994

[[record]]
compound = "COc1cccc2c(C)cc(=O)[nH]c12"
numeric_result = 0.971


Batch: normalized growth for all items listed.
1. CC(C)(C)NCC(O)c1cc(O)cc(O)c1 (stereo unspecified)
2. CC(C)c1c(O)c(-c2cc3c(c(C(C)C)c2O)CCC2C(C)(C)CCC[C@]32C)cc2c1CCC1C(C)(C)CCC[C@]21C (stereo partly specified)
3. COC(=O)CSc1nc2ccc(Cl)cc2s1
4. CCc1cccc(CC)c1N(COC)C(=O)CCl
5. CC(C)c1c(O)ccc2c1CCC1C(C)(C)CCC[C@]21C (stereo partly specified)
6. COC(=O)CSc1ncnc2c(C)csc12

1. 0.979
2. 1.02
3. 0.959
4. 1
5. 0.0898
6. 1

Batch: normalized growth for all items listed.
1. OC[C@H]1O[C@@H](n2cnc3c(N[C@H]4CC5CCC4C5)ncnc32)[C@H](O)[C@@H]1O (stereo partly specified)
2. COc1ccc2c(c1C(C)C)CCC1C(C)(C)C(=O)CCC21C (stereo unspecified)

1: 1.01; 2: 0.992

###

# Protocol Details: chemical genetic growth profiling, strain panel (AID 1159580);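 also: tested at 20 µM; growth read once vehicle control cultures reached saturation at 30 °C; 1 = growth at the plate median or of vehicle wells; lower values mean less growth of the strain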
# Condition Description: S. cerevisiae deletion strains, growth OD, locus YLR058C, strain SHM2, stronger effect = lower value
In all, about 5,500 compounds went through this assay and about 2,000 (36%) were called active. Another 18% or so got no clear call; they are omitted. This is one part of the list.
Can you tell me normalized growth for the items I'm about to list?
Answers are plain numbers.

Before answering, review these 2 worked examples.
[[record]]
molecule = "CC(C)c1c(O)c(-c2cc3c(c(C(C)C)c2O)CCC2C(C)(C)CCC[C@]32C)cc2c1CCC1C(C)(C)CCC[C@]21C (stereo not given in full)"
property_name = "normalized growth"
numeric_result = 1.02

[[record]]
molecule = "CNC(=O)Oc1cccc2c1OC(C)(C)O2"
property_name = "normalized growth"
numeric_result = 1.02


Batch: normalized growth for all items listed.
1. CCOC(=O)c1c(C)cc(OC)cc1O
2. CN1C[C@H](C(=O)N[C@]2(C)O[C@@]3(O)[C@@H]4CCCN4C(=O)[C@H](Cc4ccccc4)N3C2=O)C[C@@H]2c3cccc4[nH]cc(c34)C[C@H]21
3. O=C(OC1Cc2c(O)cc(O)cc2OC1c1cc(=O)c(O)c2c(O)c(O)cc(C3Oc4cc(O)cc(O)c4CC3O)c2c1)c1cc(O)c(O)c(O)c1 (stereo not given)
4. CC12CCC3c4ccc(OC(=O)c5ccccc5)cc4CCC3C1CCC2O (stereo not given)
5. C[C@]12CCC3c4ccc(O)cc4CCC3C1CC[C@@H]2O (stereo not given in full)
6. COc1ccc2c(c1C(C)C)CCC1C(C)(C)C(=O)CCC21C (stereo not given)

[0.993, 0.957, 0.183, 1.01, 1, 0.981]

Batch: normalized growth for all items listed.
1. CCOC(=O)c1c(C)cc(O)cc1O
2. CCC(=O)c1c(O)cc(O)cc1O

1. 0.906
2. 1

###

Can you tell me normalized growth for the items I'm about to list?
# Protocol Details: chemical genetic growth profiling, strain panel (AID 1159580);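 also: tested at 20 µM; growth read once vehicle control cultures reached saturation at 30 °C; 1 = growth at the plate median or of vehicle wells; lower values mean less growth of the strain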
# Condition Description: S. cerevisiae deletion strains, growth OD, locus YHR094C, strain hxt1, stronger effect = lower value
The whole screen tested about 5,500 compounds, of which about 2,000 (36%) were called active. About 18% were inconclusive and are not listed. The list shows a part of the results.
One number for each entry.

Before answering, review these 4 worked examples.
[[record]]
compound = "COc1ccc(-c2oc3cc(O[C@H]4O[C@H](CO)[C@@H](O)[C@H](O)[C@H]4O)c(OC)c(O)c3c(=O)c2OC)cc1O"
numeric_result = 0.981

[[record]]
compound = "CC1O[C@@H](Oc2c(-c3ccc(O)c(O)c3)oc3cc(O)cc(O)c3c2=O)[C@H](O)[C@H](O)[C@H]1O (stereo not given in full)"
numeric_result = 0.982

[[record]]
compound = "C[C@@H]1O[C@@H](OC[C@H]2OC(Oc3c(-c4ccc(O)c(O)c4)oc4cc(O)cc(O)c4c3=O)[C@H](O)[C@@H](O)[C@@H]2O)[C@H](O)[C@H](O)[C@H]1O (stereo not given in full)"
numeric_result = 0.997

[[record]]
compound = "COc1ccc(-c2cc(=O)c3c(O)cc(O[C@@H]4O[C@H](CO[C@H]5O[C@H](C)[C@@H](O)[C@H](O)[C@@H]5O)[C@@H](O)[C@H](O)[C@H]4O)cc3o2)cc1O"
numeric_result = 0.977


Now turn to the next compound.
Field request: normalized growth | item: O=c1c(O)c(-c2ccc(O)c(O)c2)oc2cc(O)cc(O)c12
1.04
